# assayText: Solubility in DMSO stock solution
# measurementConditions: solubility in DMSO before further dilution with water to 1% DMSO
experimentalEndpoint: Concentration of compound in DMSO stock solution (µM)

# compoundStructure, measuredNumber
rows = [
    ("NC(=O)c1ccc(C(=O)Nc2ccc(O)cc2O)cn1", 200000),
    ("NC(=O)c1ccc(C(=O)Nc2ccc(O)cc2O)nc1", 20000),
    ("NC(=O)c1ccc(C(=O)Nc2ccc(O)c3ccccc23)cn1", 20000),
    ("NC(=O)c1cc(C(=O)Nc2ccccc2O)c[nH]1", 200000),
    ("NC(=O)c1ccc(C(=O)Nc2cccc3cc(O)ccc23)cn1", 20000),
]

A. NC(=O)c1ccc(C(=O)Nc2cccc3c(O)cccc23)cn1
B. NC(=O)c1ccc(C(=O)Nc2ccccc2O)nc1
C. NC(=O)c1ccc(C(=O)Nc2cccc3cc(O)ccc23)nc1
D. NC(=O)c1ccc2cc(C(=O)Nc3ccccc3O)ccc2n1
Ordering: ascending Concentration of compound in DMSO stock solution. Output the labels ranked as instructed. D, A, C, B

###

# systemTested: SIRT1 (Homo sapiens)
# Construct: purchased Cisbio Bioassays
# Sequence (Q96EB6 whole entry): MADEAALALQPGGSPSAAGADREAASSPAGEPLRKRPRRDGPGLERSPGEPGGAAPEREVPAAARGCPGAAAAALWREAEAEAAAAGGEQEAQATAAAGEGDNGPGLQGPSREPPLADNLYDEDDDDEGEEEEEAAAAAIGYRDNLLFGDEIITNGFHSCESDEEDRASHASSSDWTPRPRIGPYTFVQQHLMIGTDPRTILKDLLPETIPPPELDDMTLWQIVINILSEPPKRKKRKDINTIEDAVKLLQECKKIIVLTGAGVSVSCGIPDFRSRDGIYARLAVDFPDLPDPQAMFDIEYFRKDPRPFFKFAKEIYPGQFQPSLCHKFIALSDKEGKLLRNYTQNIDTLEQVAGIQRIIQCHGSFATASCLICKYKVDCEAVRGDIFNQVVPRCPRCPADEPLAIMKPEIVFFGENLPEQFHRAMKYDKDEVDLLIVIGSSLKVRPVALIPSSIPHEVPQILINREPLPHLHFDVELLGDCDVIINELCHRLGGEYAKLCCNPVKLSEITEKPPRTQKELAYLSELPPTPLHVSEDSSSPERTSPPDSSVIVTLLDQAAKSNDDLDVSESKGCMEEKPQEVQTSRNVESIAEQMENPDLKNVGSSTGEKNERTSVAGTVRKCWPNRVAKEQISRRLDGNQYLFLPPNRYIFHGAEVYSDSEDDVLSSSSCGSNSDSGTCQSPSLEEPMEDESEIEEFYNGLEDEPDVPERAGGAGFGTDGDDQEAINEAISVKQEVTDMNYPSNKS
# assayText: CISBIO HTRF SIRT1 assay of SIRT1 peptide deacetylation, modified by excluding NAD+
# Assay type: biochemical
# measurementConditions: dose response, FIGS. 1-5
experimentalEndpoint: Modulation of SIRT1 deacetylating activity (in words)

# compoundStructure, result
rows = [
    ("NC(=O)c1ccc(C(=O)Nc2ccc(O)c3ccccc23)cn1", "clear activation"),
    ("NC(=O)c1cccc(C(=O)Nc2ccc(O)cc2O)n1", "clear activation"),
    ("NC(=O)c1ccc(C(=O)Nc2ccc(O)cc2O)cn1", "clear activation"),
    ("NC(=O)c1ccc(C(=O)Nc2ccccc2O)nc1", "clear activation"),
]

###

# Tested on: human hepatocytes
# assayText: Metabolic stability in human hepatocytes
# Format: in vitro ADME
# measurementConditions: CLh as % of hepatic blood flow, human Qh = 21 mL/min/kg
experimentalEndpoint: % Qh (human) (%)

# compound, systemTested, % Qh (human) (%)
data = [
    ("CCOc1ccc2ccc(=O)oc2c1 [Compound 7EC, reference compound]", "human hepatocytes", 82.5),
]

P. NC(=O)c1ccc(C(=O)Nc2ccc(O)c3ccccc23)cn1
Q. NC(=O)c1ccc(C(=O)Nc2ccc(O)cc2O)cn1
Higher % Qh (human) between P and Q ? Please identify the chosen entry by its label. P

###

# Tested on: human hepatocytes
# assayText: Metabolic stability in human hepatocytes
# Type: in vitro ADME
# measurementConditions: hepatic clearance from CLint by well-stirred equation, human Qh = 21 mL/min/kg
experimentalEndpoint: hu CLh (mL/min/kg)

a. NC(=O)c1ccc(C(=O)Nc2ccc(O)cc2O)nc1 [Compound 3]
b. NC(=O)c1ccc(C(=O)Nc2ccc(O)cc2O)cn1 [Compound 9]
Quick one: lower hu CLh, a or b ? Please identify the chosen entry by its label. b
(b: 7.6 mL/min/kg, a: 16.8 mL/min/kg)

###

# System: rat hepatocytes
# assayText: Metabolic stability in rat hepatocytes
# Type: in vitro ADME
# measurementConditions: CLh as % of hepatic blood flow, rat Qh = 55 mL/min/kg
experimentalEndpoint: % Qh (rat) (%)

# molecule, % Qh (rat), %
records = [
    ("NC(=O)c1ccc(C(=O)Nc2ccc(O)c3ccccc23)cn1 [Compound 11]", 70.7),
]

I. NC(=O)c1ccc(C(=O)Nc2ccc(O)cc2O)cn1 [Compound 9]
II. NC(=O)c1ccc(C(=O)Nc2ccc(O)cc2O)nc1 [Compound 3]
Quick one: lower % Qh (rat), I or II ? Please identify the chosen entry by its label. I
(I: 21.4%, II: 49.1%)
